# assaySystem: KIAA1718 Jumonji domain (residues 92–488) (Homo sapiens, UniProt Q6ZMT4)
# Sequence (Q6ZMT4 92-488): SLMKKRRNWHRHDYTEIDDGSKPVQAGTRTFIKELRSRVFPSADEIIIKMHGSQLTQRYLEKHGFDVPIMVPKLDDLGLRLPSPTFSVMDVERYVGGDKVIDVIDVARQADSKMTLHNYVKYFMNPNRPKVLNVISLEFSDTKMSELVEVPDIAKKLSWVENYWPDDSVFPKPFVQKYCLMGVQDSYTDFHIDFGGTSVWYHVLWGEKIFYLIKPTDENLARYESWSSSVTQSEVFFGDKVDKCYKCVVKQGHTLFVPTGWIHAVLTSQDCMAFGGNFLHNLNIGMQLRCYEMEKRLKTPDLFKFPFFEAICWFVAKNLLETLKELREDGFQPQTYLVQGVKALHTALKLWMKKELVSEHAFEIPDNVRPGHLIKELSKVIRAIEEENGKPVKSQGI
measuredProperty: Ki (µM)
State the answer as a number, implicitly in µM.

## Task Fill in the blank: the reported Ki of COc1cc2nc(N3CCCN(C)CC3)nc(NC3CCN(Cc4ccccc4)CC3)c2cc1OC is ____.
## Result 15.3

====

# test: Cytotoxicity
# Format: cell-based
# cond: 129S2/SvPasCrl, mouse
measuredProperty: CC50 at 24 h
Dear colleague, please send the value followed by its unit.

## Task Fill in the blank: the reported CC50 at 24 h of COc1cc2nc(N3CCCN(C)CC3)nc(NC3CCN(Cc4ccccc4)CC3)c2cc1OC [BIX-01294] is ____.
## Result 7.4 µM
